Measured EC50 of individual entries
Target: T1, cynomolgus monkey CD40 on cells (cynomolgus monkey, UniProt G7PG38 21-278)
T1 construct: also called cyCD40; CHO-K1/cyCD40
T1 sequence (G7PG38 entry or part of it limits assumed): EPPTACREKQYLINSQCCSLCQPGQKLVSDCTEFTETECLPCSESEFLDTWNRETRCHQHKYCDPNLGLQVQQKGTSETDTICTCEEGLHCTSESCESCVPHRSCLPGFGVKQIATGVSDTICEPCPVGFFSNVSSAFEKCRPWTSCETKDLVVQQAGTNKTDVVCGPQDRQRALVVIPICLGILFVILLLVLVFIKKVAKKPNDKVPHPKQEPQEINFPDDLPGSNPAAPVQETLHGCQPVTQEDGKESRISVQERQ
Experiment: FACS, CHO-K1/cyCD40 cells
Write the number in nM without appending the unit.

PR006502 (antibody, human IgG1, kappa, V domains shown, PR003379 variant L:N92D; human IgG1 L234A, L235A, G237A) VH: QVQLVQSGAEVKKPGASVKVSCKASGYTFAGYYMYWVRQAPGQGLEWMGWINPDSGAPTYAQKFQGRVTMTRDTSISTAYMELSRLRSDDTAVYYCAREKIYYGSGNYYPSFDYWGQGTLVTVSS VL: DIQLTQSPSFLSASVGDRVTITCRASQGISSYLAWYQQKPGKAPKLLIYAASTLQSGVPSRFSGSGSGTEFTLTISSLQPEDFATYYCQQLDSYPWTFGQGTKVEIKR: 3.96

Now consider a different binder.
Request: Indicate the recorded EC50 value for this binder: PR006498 (antibody, human IgG1, kappa, V domains shown, PR003379 variant L:N92I; human IgG1 L234A, L235A, G237A) VH: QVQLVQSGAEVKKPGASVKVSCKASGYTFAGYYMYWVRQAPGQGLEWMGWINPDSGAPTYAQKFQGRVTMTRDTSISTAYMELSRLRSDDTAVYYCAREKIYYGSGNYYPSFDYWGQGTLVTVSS VL: DIQLTQSPSFLSASVGDRVTITCRASQGISSYLAWYQQKPGKAPKLLIYAASTLQSGVPSRFSGSGSGTEFTLTISSLQPEDFATYYCQQLISYPWTFGQGTKVEIKR
Response: 4.04
